experiment: qHTS Assay for Lipid Storage Modulators (AID 1519); conditions: Drosophila S3 cells, BODIPY lipid droplet/cell ratio, laser cytometry; at 57.5 µM (top of the series); cells loaded with oleic acid; further: on the % scale 0 is the no-effect control and ±100 the full control effect
Inconclusive results are not listed.
measured.property: activity change, negative = inhibition (%)

{"record.smiles": "Cc1ccccc1-c1cncnc1N1CCN(C)CC1", "reading": 4.3}
{"record.smiles": "CN1CCCC2(CCN(S(=O)(=O)c3ccccc3)CC2)C1", "reading": 2.33}
{"record.smiles": "Cc1nc2cnc(N(C)C)nc2n(Cc2cccs2)c1=O", "reading": 3.99}
{"record.smiles": "COc1ccccc1CN1CCCC2(CCN(C(=O)c3cccn3C)CC2)C1", "reading": 4.14}
{"record.smiles": "O=C(Nc1cccc(F)c1)N1CCC2(CC1)CCN(C(=O)c1cc(C(F)(F)F)cc(C(F)(F)F)c1)CC2", "reading": -8.79}
{"record.smiles": "Cc1noc(C)c1C(=O)N1CCC[C@@]2(CCN(C(c3ccccc3)c3ccccc3)C2)C1", "reading": 2.35}
{"record.smiles": "CN1CC[C@@]2(CCCN(C(=O)c3cc(C(F)(F)F)cc(C(F)(F)F)c3)C2)C1", "reading": 1.24}
{"record.smiles": "COc1ccc(-c2nc3cnc(N4CCNCC4)nc3n(C)c2=O)cc1", "reading": 4.15}
{"record.smiles": "CC(C)=CCC/C(C)=C/CC/C(C)=C/CC/C(C)=C/CC/C(C)=C/CC/C(C)=C/CC/C(C)=C/CC/C(C)=C/CC/C(C)=C/CO", "reading": 5.78}
{"record.smiles": "Cc1cccc(CNc2cc(-c3cccc(NS(C)(=O)=O)c3)ncn2)c1", "reading": -2.47}

---

biological target: Dual specificity protein kinase CLK4 (Homo sapiens) (UniProt Q9HAZ1); assay: qHTS Assay for Inhibitors of CDC-like Kinase 4 (ADP-FP Assay) (AID 1795); details: Transcreener ADP fluorescence polarization; series mostly up to 50 µM; further: nearly all actives have a fitted effect of over 60% in size
Sequence (Q9HAZ1 whole entry, looked up): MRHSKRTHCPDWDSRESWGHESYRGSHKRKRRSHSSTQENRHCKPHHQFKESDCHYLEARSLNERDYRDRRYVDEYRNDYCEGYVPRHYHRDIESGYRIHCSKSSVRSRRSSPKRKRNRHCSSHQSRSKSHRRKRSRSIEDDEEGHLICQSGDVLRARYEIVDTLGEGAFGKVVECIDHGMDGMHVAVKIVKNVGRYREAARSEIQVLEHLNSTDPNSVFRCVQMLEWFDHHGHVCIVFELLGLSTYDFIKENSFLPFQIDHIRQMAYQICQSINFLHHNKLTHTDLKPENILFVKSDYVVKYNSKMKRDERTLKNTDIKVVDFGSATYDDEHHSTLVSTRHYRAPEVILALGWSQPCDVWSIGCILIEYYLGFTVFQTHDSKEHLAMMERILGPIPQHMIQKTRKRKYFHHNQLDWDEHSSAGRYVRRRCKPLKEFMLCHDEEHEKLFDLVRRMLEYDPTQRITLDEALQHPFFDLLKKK
Inconclusive results are not listed. Calls of active or inactive are those of the source. Calls follow the shape of the dose curve; as a rule, active = well fitted inhibition curve with a large enough effect; inconclusive = small, poorly fitted or top-dose-only effect; inactive = flat fitted curve, though single readings scatter.
Labels: 1 (yes) (active), 0 (no) (inactive)

{"record.smiles": "COc1ccccc1CNc1cc(-c2ccccc2OC)ncn1", "assigned.class": "0 (no)"}
{"record.smiles": "O=c1cnc2cnc(N3CCNCC3)nc2n1C1CC1", "assigned.class": "0 (no)"}
{"record.smiles": "COc1ccc2[nH]cc(CCNc3cc(-c4ccccc4CN(C)C)ncn3)c2c1", "assigned.class": "0 (no)"}
{"record.smiles": "COCCn1c(=O)c(-c2ccc(OC)cc2)nc2cnc(N3CCOCC3)nc21", "assigned.class": "0 (no)"}
{"record.smiles": "Cc1noc(C)c1-c1ccc2ncnc(NCc3cccs3)c2c1", "assigned.class": "1 (yes)"}
{"record.smiles": "COc1ccc(CNc2ncncc2-c2ccccc2C(F)(F)F)c(OC)c1", "assigned.class": "0 (no)"}
{"record.smiles": "N#CCCn1c(=O)c(-c2cc(F)cc(F)c2)nc2cnc(Nc3ccccc3)nc21", "assigned.class": "0 (no)"}
{"record.smiles": "Cc1noc(C)c1-c1nc(NCc2ccccc2)c2ccccc2n1", "assigned.class": "0 (no)"}
{"record.smiles": "COc1ncc2nc(-c3ccc(Cl)cc3)c(=O)n(CCC#N)c2n1", "assigned.class": "0 (no)"}
{"record.smiles": "CCNc1ncc2nc(-c3cccs3)c(=O)n(C[C@H]3CCCO3)c2n1", "assigned.class": "0 (no)"}
{"record.smiles": "COc1ccccc1CNc1ncnc2ccc(-c3ccoc3)cc12", "assigned.class": "1 (yes)"}
{"record.smiles": "COc1ccc(-c2nc3cnc(N(C)C)nc3n(C)c2=O)cc1", "assigned.class": "0 (no)"}
{"record.smiles": "O=c1c(-c2cccs2)nc2cnc(N3CCOCC3)nc2n1CCc1ccccc1", "assigned.class": "0 (no)"}
{"record.smiles": "COc1ccccc1-c1nc(N2CCOCC2)c2ccccc2n1", "assigned.class": "0 (no)"}
{"record.smiles": "CN(C)Cc1ccccc1-c1nc(NC2CC2)c2ccccc2n1", "assigned.class": "0 (no)"}
{"record.smiles": "COc1ccccc1-c1cncnc1NCc1ccccc1", "assigned.class": "0 (no)"}
{"record.smiles": "CN(C)c1ncc2nc(-c3cc(F)cc(F)c3)c(=O)n(Cc3ccc(F)cc3)c2n1", "assigned.class": "0 (no)"}
{"record.smiles": "CN(C)c1ncc2nc(-c3ccc(Cl)cc3)c(=O)n(C)c2n1", "assigned.class": "0 (no)"}
{"record.smiles": "COc1ncc2nc(-c3cn(C)c4ccccc34)c(=O)n(C)c2n1", "assigned.class": "0 (no)"}
{"record.smiles": "FC(F)(F)c1ccccc1-c1cc(NCc2cccnc2)ncn1", "assigned.class": "0 (no)"}
{"record.smiles": "CN(C)c1ncc2nc(CCc3ccccc3)c(=O)n(C3CC3)c2n1", "assigned.class": "0 (no)"}
{"record.smiles": "CC(=O)NCCNc1ncnc2ccc(-c3ccc4c(c3)OCO4)cc12", "assigned.class": "1 (yes)"}
{"record.smiles": "Cc1cnc(CNc2ccnc(-c3ccccc3C)n2)cn1", "assigned.class": "0 (no)"}
{"record.smiles": "CN(C)c1ncc2nc(-c3ccc(Cl)cc3)c(=O)n(-c3ccccc3)c2n1", "assigned.class": "0 (no)"}
{"record.smiles": "COCCn1c(=O)c(-c2ccccc2)nc2cnc(N(C)C)nc21", "assigned.class": "0 (no)"}
{"record.smiles": "c1nc(NCCN2CCOCC2)c2cc(-c3ccoc3)ccc2n1", "assigned.class": "1 (yes)"}
{"record.smiles": "CN(C)c1ncc2nc(-c3ccc(Cl)cc3)c(=O)n(C[C@H]3CCCO3)c2n1", "assigned.class": "0 (no)"}
{"record.smiles": "CN1CCN(c2ncnc3ccc(-c4cccc(NS(C)(=O)=O)c4)cc23)CC1", "assigned.class": "1 (yes)"}
{"record.smiles": "CCNc1ncc2nc(-c3ccc(OC)cc3)c(=O)n(CCc3ccccc3)c2n1", "assigned.class": "0 (no)"}
{"record.smiles": "COc1ccc(-n2c(=O)c(-c3cccc(F)c3)nc3cncnc32)cc1", "assigned.class": "0 (no)"}
{"record.smiles": "O=c1c(-c2cc(F)cc(F)c2)nc2cncnc2n1C1CC1", "assigned.class": "0 (no)"}
{"record.smiles": "O=c1c(-c2cc(F)cc(F)c2)nc2cncnc2n1Cc1ccccc1Cl", "assigned.class": "0 (no)"}
{"record.smiles": "Cn1c(=O)c(-c2ccc(F)cc2)nc2cnc(N3CCOCC3)nc21", "assigned.class": "0 (no)"}
{"record.smiles": "Cc1noc(C)c1-c1nc(NCc2cccs2)c2ccccc2n1", "assigned.class": "0 (no)"}
{"record.smiles": "CS(=O)(=O)Nc1cccc(-c2nccc(NCc3cccs3)n2)c1", "assigned.class": "0 (no)"}
{"record.smiles": "CCNc1ncc2nc(-c3ccc(Cl)cc3)c(=O)n(Cc3cccs3)c2n1", "assigned.class": "0 (no)"}
{"record.smiles": "COc1cccc(-c2ccc3ncnc(NCCc4c[nH]c5ccc(OC)cc45)c3c2)c1", "assigned.class": "1 (yes)"}
{"record.smiles": "COc1ccc(-n2c(=O)c(CCc3ccccc3)nc3cncnc32)cc1", "assigned.class": "0 (no)"}
{"record.smiles": "COc1ccc(-n2c(=O)c(-c3ccc(F)cc3)nc3cncnc32)cc1", "assigned.class": "0 (no)"}
{"record.smiles": "COCCn1c(=O)c(-c2cn(C)c3ccccc23)nc2cnc(OCc3ccccc3)nc21", "assigned.class": "0 (no)"}
{"record.smiles": "N#CCCn1c(=O)c(-c2ccc(Cl)cc2)nc2cnc(Nc3ccccc3)nc21", "assigned.class": "0 (no)"}
{"record.smiles": "Clc1ccccc1-c1nccc(NCCN2CCOCC2)n1", "assigned.class": "0 (no)"}
{"record.smiles": "COc1cccc(Cn2c(=O)c(-c3cccc(C#N)c3)nc3cnc(OC)nc32)c1", "assigned.class": "0 (no)"}
{"record.smiles": "CC(=O)NCCNc1ccnc(-c2ccccc2C)n1", "assigned.class": "0 (no)"}
{"record.smiles": "Cn1c(=O)c(-c2ccc(Cl)cc2)nc2cnc(N3CCNCC3)nc21", "assigned.class": "0 (no)"}

Where do these numbers come from? They come from PubChem BioAssay (NCATS).
